# melting point listing for each entry below
Residues, ends and D or L forms follow the SMILES beside them. *: point of attachment. Tos = Cc1ccc(S(=O)(=O)*)cc1; NHPh = c1ccc(N*)cc1

Example results:
{"COMPOUND": "Clc1ccc2c(c1)C(c1ccccc1)=NCc1nnc(CCOCc3ccccc3)n1-2", "MEAS_VALUE": "115 to 117 °C"}
{"COMPOUND": "CCCCCC1(C(=O)O)CC2=C(C1)C(C)(C)CCC2(C)C", "MEAS_VALUE": "57 to 58 °C"}
{"COMPOUND": "O=P(O)(O)C(O)(Cc1nn(-c2ccc(F)cc2)cc1-c1ccc(Cl)cc1)P(=O)(O)O", "MEAS_VALUE": "201 to 203 °C"}

Reported melting point ( CCC(=O)N1CCNC1=Nc1ccc(Cl)cc1Cl ) = 126 to 128 °C

Lab note: Cc1ccc2oc(-c3ccccc3-c3nnn[nH]3)c(Br)c2c1 gave melting point of 167 to 168 °C

So, Cc1ccc(S(=O)(=O)N[C@@H](C)C(=O)N2CCC[C@H]2C(=O)Nc2ccccc2)cc1 (Tos-Ala-Pro-NHPh) ? Its melting point was 145 to 147 °C

Please fill in: melting point reported for COc1c(C)c(C)c(OCc2ccccc2)c(C)c1CN(C)CCOc1cc(C)ccc1C(C)C = 138 to 141 °C

Memo: CC(=O)c1c(C)nc(C)nc1NCc1ccc(-c2ccccc2-c2nnnn2C(C)(C)C)cc1 , reported melting point: 131 to 132 °C

Noted for CC(=NNc1ccc(C2=NNC(=O)CC2C)cc1)c1cc(O)cc(O)c1 (stereo not drawn) : its melting point reads 162 to 166 °C
